# target under test: CaV2.2 (Homo sapiens)
# Construct: expressed in transfected cells; host or cells: HEK293
# Sequence (Q00975 whole entry): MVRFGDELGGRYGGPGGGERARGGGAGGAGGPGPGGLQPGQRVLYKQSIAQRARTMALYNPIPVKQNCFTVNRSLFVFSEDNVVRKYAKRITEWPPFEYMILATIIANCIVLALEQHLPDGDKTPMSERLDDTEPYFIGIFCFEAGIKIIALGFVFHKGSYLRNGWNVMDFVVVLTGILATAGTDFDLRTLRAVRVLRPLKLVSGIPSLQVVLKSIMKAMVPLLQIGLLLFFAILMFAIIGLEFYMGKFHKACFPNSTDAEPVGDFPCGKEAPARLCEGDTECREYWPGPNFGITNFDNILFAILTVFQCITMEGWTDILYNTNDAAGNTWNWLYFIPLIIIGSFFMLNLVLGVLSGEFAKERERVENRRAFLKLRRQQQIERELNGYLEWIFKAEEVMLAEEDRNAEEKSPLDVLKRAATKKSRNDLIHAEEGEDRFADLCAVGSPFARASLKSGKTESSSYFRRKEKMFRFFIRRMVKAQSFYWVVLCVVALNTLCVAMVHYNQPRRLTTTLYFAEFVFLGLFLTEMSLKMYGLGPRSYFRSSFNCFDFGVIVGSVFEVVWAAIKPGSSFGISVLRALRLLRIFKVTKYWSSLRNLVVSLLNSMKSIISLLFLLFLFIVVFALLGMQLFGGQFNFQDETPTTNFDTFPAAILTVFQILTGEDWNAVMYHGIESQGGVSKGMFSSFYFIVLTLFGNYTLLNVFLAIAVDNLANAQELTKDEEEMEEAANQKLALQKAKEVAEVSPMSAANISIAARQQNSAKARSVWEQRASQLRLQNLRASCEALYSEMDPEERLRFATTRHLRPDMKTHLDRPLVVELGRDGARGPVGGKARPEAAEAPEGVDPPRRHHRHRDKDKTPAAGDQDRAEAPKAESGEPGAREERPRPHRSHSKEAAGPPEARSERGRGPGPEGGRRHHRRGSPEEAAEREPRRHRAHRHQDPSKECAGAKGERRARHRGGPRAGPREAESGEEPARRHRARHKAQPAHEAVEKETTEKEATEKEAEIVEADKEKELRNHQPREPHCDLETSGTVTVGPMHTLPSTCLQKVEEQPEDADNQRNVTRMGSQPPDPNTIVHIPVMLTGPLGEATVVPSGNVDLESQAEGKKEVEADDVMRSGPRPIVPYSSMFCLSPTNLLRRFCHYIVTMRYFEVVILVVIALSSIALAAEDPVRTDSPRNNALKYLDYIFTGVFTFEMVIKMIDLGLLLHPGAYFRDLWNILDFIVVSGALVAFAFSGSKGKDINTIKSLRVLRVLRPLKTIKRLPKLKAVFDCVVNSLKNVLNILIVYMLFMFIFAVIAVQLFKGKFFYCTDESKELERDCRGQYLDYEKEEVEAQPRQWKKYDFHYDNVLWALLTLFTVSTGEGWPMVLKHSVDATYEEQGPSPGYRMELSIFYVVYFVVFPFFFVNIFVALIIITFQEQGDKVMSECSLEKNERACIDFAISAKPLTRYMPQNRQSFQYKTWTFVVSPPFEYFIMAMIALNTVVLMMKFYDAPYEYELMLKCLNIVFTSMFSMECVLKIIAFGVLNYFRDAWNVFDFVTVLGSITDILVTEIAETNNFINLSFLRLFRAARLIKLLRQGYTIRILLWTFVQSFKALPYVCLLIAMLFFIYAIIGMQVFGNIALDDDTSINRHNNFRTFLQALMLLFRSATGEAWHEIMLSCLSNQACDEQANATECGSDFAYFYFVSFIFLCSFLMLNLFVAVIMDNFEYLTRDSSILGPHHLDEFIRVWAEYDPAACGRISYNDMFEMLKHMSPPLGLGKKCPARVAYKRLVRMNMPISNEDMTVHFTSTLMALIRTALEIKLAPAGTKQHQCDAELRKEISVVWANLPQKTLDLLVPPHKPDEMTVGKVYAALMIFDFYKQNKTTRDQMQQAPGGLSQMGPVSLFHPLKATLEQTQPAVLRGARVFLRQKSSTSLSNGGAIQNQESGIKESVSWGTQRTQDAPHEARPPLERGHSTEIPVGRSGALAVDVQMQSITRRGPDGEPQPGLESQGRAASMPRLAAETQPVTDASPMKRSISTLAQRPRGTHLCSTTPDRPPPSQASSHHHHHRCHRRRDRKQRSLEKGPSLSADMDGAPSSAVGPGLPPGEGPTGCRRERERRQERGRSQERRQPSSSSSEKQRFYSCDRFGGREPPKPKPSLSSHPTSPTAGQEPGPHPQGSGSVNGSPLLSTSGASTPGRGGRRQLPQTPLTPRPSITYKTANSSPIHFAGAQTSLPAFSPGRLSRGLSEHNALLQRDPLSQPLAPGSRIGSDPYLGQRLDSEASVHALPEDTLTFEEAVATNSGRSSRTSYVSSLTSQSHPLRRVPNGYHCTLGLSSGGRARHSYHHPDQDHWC
# Sequence (P54284 whole entry partner): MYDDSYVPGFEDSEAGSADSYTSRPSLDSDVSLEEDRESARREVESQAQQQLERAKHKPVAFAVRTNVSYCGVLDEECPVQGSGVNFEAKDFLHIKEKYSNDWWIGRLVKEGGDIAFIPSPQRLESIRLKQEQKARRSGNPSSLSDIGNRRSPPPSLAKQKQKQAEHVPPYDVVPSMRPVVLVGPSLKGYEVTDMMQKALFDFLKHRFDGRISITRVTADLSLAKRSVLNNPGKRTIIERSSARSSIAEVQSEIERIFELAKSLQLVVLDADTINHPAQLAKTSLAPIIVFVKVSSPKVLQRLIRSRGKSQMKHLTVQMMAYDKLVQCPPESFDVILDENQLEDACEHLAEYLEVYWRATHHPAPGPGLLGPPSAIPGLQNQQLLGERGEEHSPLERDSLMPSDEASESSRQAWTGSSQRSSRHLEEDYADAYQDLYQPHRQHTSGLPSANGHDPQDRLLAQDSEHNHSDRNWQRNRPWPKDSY
# Sequence (P54289 25-946 partner limits assumed): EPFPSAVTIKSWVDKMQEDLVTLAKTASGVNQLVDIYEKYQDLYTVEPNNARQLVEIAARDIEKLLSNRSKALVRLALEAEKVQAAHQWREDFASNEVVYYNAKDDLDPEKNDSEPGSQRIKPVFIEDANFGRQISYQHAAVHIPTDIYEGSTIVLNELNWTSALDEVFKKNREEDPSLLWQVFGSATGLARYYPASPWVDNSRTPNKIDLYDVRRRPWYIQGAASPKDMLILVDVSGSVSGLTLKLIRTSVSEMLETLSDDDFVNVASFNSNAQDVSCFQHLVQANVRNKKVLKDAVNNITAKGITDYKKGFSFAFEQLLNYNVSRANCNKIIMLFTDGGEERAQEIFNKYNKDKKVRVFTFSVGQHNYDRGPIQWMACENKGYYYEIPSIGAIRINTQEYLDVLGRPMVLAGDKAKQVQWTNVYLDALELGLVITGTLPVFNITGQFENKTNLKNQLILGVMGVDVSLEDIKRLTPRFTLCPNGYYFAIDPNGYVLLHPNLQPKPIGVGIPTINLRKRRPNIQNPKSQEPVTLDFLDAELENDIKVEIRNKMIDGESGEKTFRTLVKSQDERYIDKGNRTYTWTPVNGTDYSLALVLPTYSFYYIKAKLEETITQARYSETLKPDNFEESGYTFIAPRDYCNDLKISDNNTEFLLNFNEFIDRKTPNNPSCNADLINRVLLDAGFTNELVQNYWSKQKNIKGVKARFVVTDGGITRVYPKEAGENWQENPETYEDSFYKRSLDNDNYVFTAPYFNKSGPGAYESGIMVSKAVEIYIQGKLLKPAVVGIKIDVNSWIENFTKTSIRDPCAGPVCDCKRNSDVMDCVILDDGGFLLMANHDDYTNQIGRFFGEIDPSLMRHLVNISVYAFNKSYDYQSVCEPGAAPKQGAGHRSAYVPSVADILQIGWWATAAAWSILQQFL
# Sequence (P54289 947-1103 partner limits assumed): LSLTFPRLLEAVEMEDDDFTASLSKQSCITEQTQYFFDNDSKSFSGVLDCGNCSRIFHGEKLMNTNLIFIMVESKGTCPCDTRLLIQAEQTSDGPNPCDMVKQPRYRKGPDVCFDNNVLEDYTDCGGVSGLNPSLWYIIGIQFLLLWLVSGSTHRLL
# assay overview: VIPR optical membrane potential assay with electrical stimulation
# Format: cell-based
# condition details: Table 3, biological assay data; read-out: IC50
Kindly state IC50 for each of the entries shown.

Query block: Give its IC50 value. Item: CCN(CC)C(=O)c1[nH]c2ccc(S(=O)(=O)N3CCC(C)CC3)cc2c1C [compound 168]
Result block: 5 to 20 µM

Query block: Give its IC50 value. Item: CC1CC(C)CN(S(=O)(=O)c2ccc3c(c2)cc(C(=O)N2CCCCC2)n3C)C1 (centres unmarked) [compound 391]
Result block: < 5 µM

Query block: Give its IC50 value. Item: Cc1c(C(=O)NC(C)C2=CCCCC2)oc2ccc(S(=O)(=O)N3CCCCC3)cc12 (centres unmarked) [compound 57]
Result block: 5 to 20 µM

Query block: Give its IC50 value. Item: CC1CC(C)CN(S(=O)(=O)c2ccc3[nH]c(C(=O)N(C)Cc4ccccc4)cc3c2)C1 (centres unmarked) [compound 185]
Result block: < 5 µM

Query block: Give its IC50 value. Item: CCNC(=O)c1[nH]c2ccc(S(=O)(=O)N3CCC(C)CC3)cc2c1C [compound 301]
Result block: 5 to 20 µM

Query block: Give its IC50 value. Item: CCCCN(C)C(=O)c1oc2ccc(S(=O)(=O)N3CCCC(C)C3)cc2c1C (centres unmarked) [compound 369]
Result block: < 5 µM

Query block: Give its IC50 value. Item: CCCCN(C)C(=O)c1oc2ccc(S(=O)(=O)N3CC(C)CC(C)C3)cc2c1C (centres unmarked) [compound 321]
Result block: < 5 µM

Query block: Give its IC50 value. Item: Cc1c(C(=O)NCCC2=CCCCC2)oc2ccc(S(=O)(=O)N3CCOCC3)cc12 [compound 197]
Result block: < 20 µM

Query block: Give its IC50 value. Item: CC(C)NC(=O)c1cc2cc(S(=O)(=O)N3CCCCCC3)ccc2o1 [compound 218]
Result block: 5 to 20 µM

Query block: Give its IC50 value. Item: CCCS(=O)(=O)n1c(C(=O)N2CCCCC2)cc2cc(S(=O)(=O)N3CC(C)CC(C)C3)ccc21 (centres unmarked) [compound 387]
Result block: < 5 µM

Query block: Give its IC50 value. Item: Cc1c(C(=O)NC2CC2)oc2ccc(S(=O)(=O)Nc3ccc(F)cc3)cc12 [compound 228]
Result block: < 20 µM

Query block: Give its IC50 value. Item: CC1CCN(S(=O)(=O)c2ccc3[nH]c(C(=O)N(C)Cc4ccccc4)cc3c2)CC1 [compound 285]
Result block: < 5 µM

Query block: Give its IC50 value. Item: Cc1c(C(=O)NC2CCCc3ccccc32)oc2ccc(S(=O)(=O)N3CCOCC3)cc12 (centres unmarked) [compound 109]
Result block: < 20 µM

Query block: Give its IC50 value. Item: Cc1c(C(=O)N2CCCC2)oc2ccc(S(=O)(=O)N3CCCC(C)C3)cc12 (centres unmarked) [compound 178]
Result block: 5 to 20 µM

Query block: Give its IC50 value. Item: CCN(CC)S(=O)(=O)c1ccc2oc(C(=O)N3CCCCC3C)c(C)c2c1 (centres unmarked) [compound 112]
Result block: 5 to 20 µM

Query block: Give its IC50 value. Item: CCN(CC)C(=O)c1cc2cc(S(=O)(=O)N3CC(C)CC(C)C3)ccc2n1CC(O)CN(C)C (centres unmarked) [compound 314]
Result block: 5 to 20 µM

Query block: Give its IC50 value. Item: CCNC(=O)c1cc2cc(S(=O)(=O)N3CCCCCC3)ccc2[nH]1 [compound 77]
Result block: < 5 µM
